Collected koff values appear next to each entry.
- assayed-target: T1, human ALK7-EK-Fc comprising protein (human, UniProt Q8NER5 22-113)
- T1 construct: also called ALK7-Fc comprising protein; Human ALK7-Fc comprising protein; not shown: 'EK' segment between ALK7 and Fc; Fc portion
- T1 sequence: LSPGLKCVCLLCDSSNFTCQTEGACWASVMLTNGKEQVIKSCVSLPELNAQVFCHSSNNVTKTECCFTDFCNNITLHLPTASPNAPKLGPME
- protocol-notes: SPR (Biacore T100/T200), antibody captured on FAB chip, ALK7-Fc protein as analyte, 1:1 model
State just the number; it will be interpreted in s⁻¹.

Use the examples below as a reference point.
M01 (antibody, V domains shown, Kappa light chain is implied by the anti-kappa reagent and KappaSelect; In SPR the antibody was captured on a custom FAB chip; also called ALK7 mAb M01) VH: QLQLQESGPGLVKPSETLSLTCTVSGGSISSSAYYWAWIRQPPGKGLEWIGSIYLSGSTTYNPSLKSRVTISVDTSKNQFSLKLSSVTAADTAVYYCARDGRYQSRSPDYYYGMDVWGQGTTVTVSS VL: EIVLTQSPGTLSLSPGERATLSCRASQSVSDNYLAWYQQKPGQAPRLLIYGASNIATGIPDRFSGSGSGTDFTLTISRLEPEDFAVYYCASVFSYPFTFGGGTKVEIK :: 4.32e-05
P03 (antibody, V domains shown) VH: QVQLVQSGAEVKKPGASVKVSCKASGYTFAGYNMHWVRQAPGQGLEWVGIINPNSGWTNYAQKFQGRVTMTRDTSVSAAYMELSRLRSDDTAVYYCARDPVGARYEVFDYWGQGTLVTVSS VL: EIVMTQSPATLSVSPGERATLSCQASQSVSSNLAWYQQKPGQAPRLLIYGASTIATGIPARFSGSGSGTEFTLTISSLQSEDFAVYYCQQAYAFPLTFGGGTKVEIK :: 1.43e-05
N02 (antibody, V domains shown) VH: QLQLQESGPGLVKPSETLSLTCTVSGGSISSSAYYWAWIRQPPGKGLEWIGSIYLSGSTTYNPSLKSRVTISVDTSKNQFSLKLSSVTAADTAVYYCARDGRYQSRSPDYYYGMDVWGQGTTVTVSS VL: EIVLTQSPGTLSLSPGERATLSCRASQSVSSSYLAWYQQKPGQAPRLLIYGASSTAYGIPDRFSGSGSGTDFTLTISRLEPEDFAVYYCQQLVAYPFTFGGGTKVEIK :: 5.2e-05

The binder listed as Q04 (antibody, V domains shown) VH: QVQLVQSGAEVKKPGASVKVSCKASGYTFAGYNMHWVRQAPGQGLEWVGIINPNSGWTNYAQKFQGRVTMTRDTSVSAAYMELSRLRSDDTAVYYCARDPVGARYEVFDYWGQGTLVTVSS VL: EIVMTQSPATLSVSPGERATLSCKASQSVSSNLAWYQQKPGQAPRLLIYGASTRATGIPARFSGSGSGTEFTLTISSLQSEDFAVYYCQQAVKFPLTFGGGTKVEIK shows koff equal to 4.7e-05
